EXPERIMENT: Metabolic stability in Dunkin-Hartley guinea pig plasma assessed as half life at 5 uM measured upto 120 mins by LC-MS/MS analysis
Type: ADME, cell-free, Cavia porcellus
ASSAY READOUT: half-life at 5 µM
Reply with the number, then its unit.

O=C(N[C@@H](c1ccccc1)c1cccc(OCc2ccc(C(=O)OCCCCNC[C@H](O)c3ccc(O)c4[nH]c(=O)ccc34)cc2)c1)O[C@H]1CN2CCC1CC2 has a reported half-life at 5 µM of 1.16 h

O=C(N[C@H](c1ccccc1)c1cccc(OCc2ccc(C(=O)OCCCCNC[C@H](O)c3ccc(O)c4[nH]c(=O)ccc34)cc2)c1)O[C@H]1CN2CCC1CC2 has a reported half-life at 5 µM of 0.778 h

COc1cc(C(=O)OCCCCNC[C@H](O)c2ccc(O)c3[nH]c(=O)ccc23)ccc1COc1cccc([C@@H](NC(=O)O[C@H]2CN3CCC2CC3)c2ccccc2)c1 has a reported half-life at 5 µM of 1.39 h
